// data source = patent US9090600B2

Tested on: Plasmopara viticola
Assay: Plasmopara test (grapevines)/preventive
Format: in vivo
Details: preventive spray, 10 ppm of active ingredient, evaluated 6 days after inoculation
measure: Eff. % (%)

INSERT INTO measurements (compound, measured_target, measure, readout_unit, recorded_result) VALUES
  ('CCCCCC(=O)Nc1cccc(CO/N=C(/c2ccccc2)c2noc(=O)n2C)n1', 'Plasmopara viticola', 'Eff. %', '%', 100),
  ('Cn1c(/C(=N\OCc2cccc(NC(=O)CCCCCl)n2)c2ccccc2)noc1=O', 'Plasmopara viticola', 'Eff. %', '%', 87),
  ('CCCCCOC(=O)Nc1nc(CO/N=C(/c2ccccc2)c2noc(=O)n2C)cs1', 'Plasmopara viticola', 'Eff. %', '%', 94),
  ('Cn1c(/C(=N\OCc2csc(NC(=O)c3cccc(F)c3)n2)c2ccccc2)noc1=O', 'Plasmopara viticola', 'Eff. %', '%', 94),
  ('Cn1c(C(=NOCc2cccc(NCC3CCCCC3)n2)c2ccccc2)noc1=O', 'Plasmopara viticola', 'Eff. %', '%', 93),
  ('CCCCOC(=O)Nc1cccc(CO/N=C(/c2ccccc2)c2noc(=O)n2C)n1', 'Plasmopara viticola', 'Eff. %', '%', 100),
  ('Cn1c(/C(=N\OCc2cccc(NC(=O)CCc3ccccc3)n2)c2ccccc2)noc1=O', 'Plasmopara viticola', 'Eff. %', '%', 100),
  ('CCCCOC(=O)Nc1cccc(CO/N=C(/c2cccc(F)c2)c2noc(=O)n2C)n1', 'Plasmopara viticola', 'Eff. %', '%', 89),
  ('Cn1c(/C(=N\OCc2csc(NC(=O)COC3CCCC3)n2)c2ccccc2)noc1=O', 'Plasmopara viticola', 'Eff. %', '%', 95),
  ('CCCCC(CC)C(=O)Nc1cccc(CO/N=C(/c2ccccc2)c2noc(=O)n2C)n1 (centres unmarked)', 'Plasmopara viticola', 'Eff. %', '%', 79),
  ('Cn1c(/C(=N\OCc2cccc(NC(=O)CC(C)(C)C)n2)c2ccccc2)noc1=O', 'Plasmopara viticola', 'Eff. %', '%', 86),
  ('Cn1c(/C(=N\OCc2cccc(NC/C=N/OCc3ccccc3)n2)c2ccccc2)noc1=O', 'Plasmopara viticola', 'Eff. %', '%', 75),
  ('CCCCCC(=O)Nc1cccc(CO/N=C(/c2cccc(C)c2)c2noc(=O)n2C)n1', 'Plasmopara viticola', 'Eff. %', '%', 75),
  ('C=CCCCCC(=O)Nc1cccc(CO/N=C(/c2ccccc2)c2noc(=O)n2C)n1', 'Plasmopara viticola', 'Eff. %', '%', 86),
  ('Cn1c(/C(=N\OCc2cccc(NC(=O)CCC3CCC3)n2)c2ccccc2)noc1=O', 'Plasmopara viticola', 'Eff. %', '%', 100),
  ('Cn1c(/C(=N\OCc2cccc(NC(=O)CC3CCCCC3)n2)c2ccccc2)noc1=O', 'Plasmopara viticola', 'Eff. %', '%', 91),
  ('Cc1ccc(OC(C)C(=O)Nc2nc(CO/N=C(/c3ccccc3)c3noc(=O)n3C)cs2)cc1 (centres unmarked)', 'Plasmopara viticola', 'Eff. %', '%', 95);

---

Details: pH 2.7
Marks after values point to notes of the source that are not given here.
Recorded LogP values for a group of molecules are listed next.
measure: LogP

INSERT INTO measurements (molecule, measure, recorded_result) VALUES
  ('Cc1ccccc1OC(C)C(=O)Nc1nc(CO/N=C(/c2ccccc2)c2noc(=O)n2C)cs1 (stereo not shown)', 'LogP', '4.12 [a]'),
  ('COc1cccc(/C(=N/OCc2cccc(NC(=O)OC(C)CC(C)C)n2)c2noc(=O)n2C)c1 (stereo not shown)', 'LogP', '4.72 [a]'),
  ('CCCCCCCCCC(=O)Nc1cccc(CO/N=C(/c2ccccc2)c2noc(=O)n2C)n1', 'LogP', '5.54 [a]'),
  ('CCC1(COC(=O)Nc2cccc(CO/N=C(/c3ccccc3)c3noc(=O)n3C)n2)COC1', 'LogP', '3.27 [a]'),
  ('Cn1c(/C(=N\OCc2cccc(NC(=O)OCC3COC(=O)O3)n2)c2ccccc2)noc1=O (racemic)', 'LogP', '2.75 [a]'),
  ('Cc1cc(Cl)ccc1OCCCC(=O)Nc1cccc(CO/N=C(/c2ccccc2)c2noc(=O)n2C)n1', 'LogP', '4.73 [a]'),
  ('C#CCCOC(=O)Nc1cccc(CO/N=C(/c2ccccc2)c2noc(=O)[nH]2)n1', 'LogP', '3.09 [a]'),
  ('Cn1c(/C(=N\OCc2csc(NC(=O)COc3ccccc3F)n2)c2ccccc2)noc1=O', 'LogP', '3.51 [a]'),
  ('Cn1c(/C(=N\OCc2cccc(NC(=O)CCC(C)(C)C)n2)c2ccccc2)noc1=O', 'LogP', '4.15 [a]'),
  ('Cn1c(/C(=N\OCc2cccc(NC(=O)OCC3(C)COC3)n2)c2ccccc2)noc1=O', 'LogP', '2.96 [a]'),
  ('Cn1c(/C(=N\OCc2cccc(NC(=O)OCCc3cccc(Br)c3)n2)c2ccccc2)noc1=O', 'LogP', '4.61 [a]'),
  ('Cn1c(/C(=N\OCc2cccc(NC(=O)OCc3c(Cl)cccc3Cl)n2)c2ccccc2)noc1=O', 'LogP', '4.56 [a]'),
  ('C#CCC(C)OC(=O)Nc1cccc(CO/N=C(/c2ccccc2)c2noc(=O)n2C)n1 (stereo not shown)', 'LogP', '3.57 [a]'),
  ('Cn1c(/C(=N\OCc2cccc(NC(=O)c3cccc(F)c3)n2)c2cccc(F)c2)noc1=O', 'LogP', '3.79 [a]'),
  ('CC(C)(C)OC(=O)Nc1cccc(CON=C(C(N)=NO)c2ccccc2)n1 (mixture of isomers) [Example V-14]', 'LogP', '2.57 [a]'),
  ('Cn1c(C(=NOCc2cccc(N)n2)c2ccc(F)cc2)noc1=O', 'LogP', '1.41 [a]');
